- test.target: CDK7 (human)
- assay.explanation: Caliper, Mobility shift assay off-chip
- condition.details: compound 0.2 µM
quantity.measured: inhibition (%)
The answer is to be given in %; state only the numeric part.

Some solved cases for reference:
[
  {
    "smiles.notation": "COc1cc2c(Oc3ccc4[nH]c(C)cc4c3F)ncnc2cc1OCCCN1CCCC1",
    "inhibition (%)": -4.5
  },
  {
    "smiles.notation": "CCN(CC)CCNC(=O)c1c(C)[nH]c(/C=C2\\C(=O)Nc3ccc(F)cc32)c1C",
    "inhibition (%)": 87.6
  },
  {
    "smiles.notation": "Cc1ccc(Nc2nccc(N(C)c3ccc4c(C)n(C)nc4c3)n2)cc1S(N)(=O)=O",
    "inhibition (%)": -2.2
  }
]

Entry "CNC(=O)c1cc(Oc2ccc(NC(=O)Nc3ccc(Cl)c(C(F)(F)F)c3)cc2)ccn1" needs its inhibition filled in; supply it.
-7
